Listing: inhibition at 33 µM of selected compounds
STUDY_SYSTEM: HCV-NS5b (Hepatitis C virus genotype 1b, UniProt Q9WMX2)
Construct: (His)6 (C); made in house; host or cells: XL-1 cells (E. coli), IPTG-inducible plasmid, nickel-NTA purification
ASSAY_OVERVIEW: HCV-NS5b enzyme assay (incorporation of radiolabeled UTP)
Type: biochemical
SETTINGS: enzyme inhibition at compound concentration of 33 uM
Please respond with the number in % and leave the unit unwritten.

Query :: Reported inhibition at 33 µM, compound O=C(N[C@@H](Cc1ccc(C(=O)c2ccccc2)cc1)C(=O)O)c1ccc2c(c1)nc(-c1ccc3nc(-c4ccccc4)cnc3c1)n2C1CCCCC1 [Compound 241] : ____
Result :: 98

Query :: I would be grateful if you could share the reported inhibition at 33 µM for NC(=O)CNC(=O)c1ccc(-c2ccccc2)c(-c2ccc3cc(-c4nc5cc(C(=O)O)ccc5n4C4CCCCC4)ccc3n2)c1 [Compound 377] .
Result :: 99.2

Query :: Fill in the blank: the reported inhibition at 33 µM of Cc1cc(-c2ccccc2Br)nc2ccc(-c3nc4cc(C(=O)O)ccc4n3C3CCCCC3)cc12 [Compound 471] is ____.
Result :: 97.8

Query :: Name the reported inhibition at 33 µM value associated with the compound O=C(O)c1ccc2c(c1)nc(-c1ccc3nc(-c4cnccn4)ccc3c1)n2C1CCCCC1 [Compound 442]
Result :: 92.5
